- measuredOn: recombinant guanylate cyclase reporter cell line (Rattus norvegicus, UniProt P19686+P20595)
- Construct: expressed in transfected cells; host or cells: recombinant reporter cell line
- Sequence (P19686 1-690): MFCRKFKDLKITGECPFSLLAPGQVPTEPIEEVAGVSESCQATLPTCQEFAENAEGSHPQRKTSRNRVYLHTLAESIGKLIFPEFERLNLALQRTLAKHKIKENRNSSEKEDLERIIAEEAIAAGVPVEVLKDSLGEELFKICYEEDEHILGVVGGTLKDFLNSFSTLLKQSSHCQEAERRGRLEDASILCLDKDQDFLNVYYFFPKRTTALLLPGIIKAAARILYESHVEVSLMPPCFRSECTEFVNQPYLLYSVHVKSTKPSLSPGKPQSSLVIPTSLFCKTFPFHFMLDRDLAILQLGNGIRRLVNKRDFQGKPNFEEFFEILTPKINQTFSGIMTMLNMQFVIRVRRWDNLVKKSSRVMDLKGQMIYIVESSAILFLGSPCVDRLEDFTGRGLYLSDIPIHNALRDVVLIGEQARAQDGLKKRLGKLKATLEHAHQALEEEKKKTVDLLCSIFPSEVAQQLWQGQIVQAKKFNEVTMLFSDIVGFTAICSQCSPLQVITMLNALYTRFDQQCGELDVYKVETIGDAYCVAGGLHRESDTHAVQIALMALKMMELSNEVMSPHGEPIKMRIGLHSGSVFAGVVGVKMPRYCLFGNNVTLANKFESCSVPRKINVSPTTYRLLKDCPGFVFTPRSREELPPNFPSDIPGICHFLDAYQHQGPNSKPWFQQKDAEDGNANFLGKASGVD
- Sequence (P20595 1-619): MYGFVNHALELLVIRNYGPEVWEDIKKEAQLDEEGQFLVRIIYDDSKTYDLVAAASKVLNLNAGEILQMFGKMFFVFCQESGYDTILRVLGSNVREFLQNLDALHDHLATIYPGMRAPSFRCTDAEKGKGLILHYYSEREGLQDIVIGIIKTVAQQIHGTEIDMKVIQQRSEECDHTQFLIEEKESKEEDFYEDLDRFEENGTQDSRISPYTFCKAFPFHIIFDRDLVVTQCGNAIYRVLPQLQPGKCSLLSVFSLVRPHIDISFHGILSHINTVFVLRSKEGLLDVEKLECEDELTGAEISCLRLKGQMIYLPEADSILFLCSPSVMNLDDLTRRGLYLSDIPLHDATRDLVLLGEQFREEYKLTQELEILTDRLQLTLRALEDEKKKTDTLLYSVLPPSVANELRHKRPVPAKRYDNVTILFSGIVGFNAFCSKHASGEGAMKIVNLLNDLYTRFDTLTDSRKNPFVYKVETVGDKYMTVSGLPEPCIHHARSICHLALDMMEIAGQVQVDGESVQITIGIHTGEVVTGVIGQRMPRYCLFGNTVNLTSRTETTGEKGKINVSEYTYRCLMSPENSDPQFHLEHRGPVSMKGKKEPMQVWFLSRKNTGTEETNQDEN
- protocolSummary: Action on recombinant guanylate cyclase reporter cell line
- Type: cell-based
- testSettings: in some cases mean values from individual determinations
outcomeMeasure: MEC (minimal effective concentration) (µM)
Hi! Could you send only the number? It should be in µM, unit omitted.

Some solved cases for reference:
[
  {
    "compound": "Cc1nc2c(OCc3c(F)cccc3F)cc(Cl)cn2c1C(=O)NCC(C)N (racemic) [Example 23]",
    "MEC (minimal effective concentration) / µM": 0.30
  },
  {
    "compound": "Cc1nc2c(OCc3c(F)cccc3F)cc(Cl)cn2c1C(=O)NCC(N)CC(F)(F)F (racemic) [Example 147]",
    "MEC (minimal effective concentration) / µM": 0.30
  }
]

Supply measured MEC (minimal effective concentration) of Cc1nc2c(OCc3c(F)cccc3F)cc(Cl)cn2c1C(=O)NC(C)CN (stereo not drawn) [Example 22] in your reply.
0.30

These data points were gathered from patent US20150274719A1.
